# maps each entry to its Kd
tested system: human STING (WT) (Homo sapiens (Human), UniProt Q86WV6, H232R)
Sequence (Q86WV6 other isoform, or with tags, fused parts or gaps, stated change not applied): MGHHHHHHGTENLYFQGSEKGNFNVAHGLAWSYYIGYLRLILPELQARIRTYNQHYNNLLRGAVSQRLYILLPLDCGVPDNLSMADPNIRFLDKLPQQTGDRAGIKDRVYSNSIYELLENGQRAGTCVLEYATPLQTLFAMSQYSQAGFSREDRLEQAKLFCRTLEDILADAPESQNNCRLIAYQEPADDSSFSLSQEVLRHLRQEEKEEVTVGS
assay procedure: Surface plasmon resonance (SPR), STING (WT)
protocol conditions: biotinylated STING on streptavidin chip, 8° C.
Express your answer in µM, writing the number without its unit.

Reference set (4 entries):
- COc1ccc(-c2nc3c(OC)c(C(N)=O)ccc3n2CCn2c(-c3ccc(OC)cc3C(=O)O)nc3c(OC)c(C(N)=O)ccc32)c(C(=O)O)c1 [Example 41]: 200
- COc1c(C(N)=O)ccc2c1nc(-c1c(F)cc(F)cc1C(=O)O)n2CCn1c(-c2c(F)cc(F)cc2C(=O)O)nc2c(OC)c(C(N)=O)ccc21 [Example 16]: 1.52
- COc1c(C(N)=O)ccc2c1nc(-c1ccc(Cl)cc1-c1n[nH]c(=O)o1)n2CCn1c(-c2ccc(Cl)cc2-c2n[nH]c(=O)o2)nc2c(OC)c(C(N)=O)ccc21 [Example 17]: 9.5
- COc1c(C(N)=O)cc(F)c2c1nc(-c1c(F)cc(F)cc1C(=O)O)n2CCn1c(-c2c(F)cc(F)cc2C(=O)O)nc2c(OC)c(C(N)=O)cc(F)c21 [Example 18]: 2.01

// query Kd value for entry COc1c(C(N)=O)ccc2c1nc(-c1c(F)cc(F)cc1-c1nn[nH]n1)n2CCn1c(-c2c(F)cc(F)cc2-c2nn[nH]n2)nc2c(OC)c(C(N)=O)ccc21 [Example 43]
1.79

// query Kd value for entry CCc1ccc(-c2nc3c(OC)c(C(N)=O)ccc3n2CCn2c(-c3ccc(CC)cc3C(=O)O)nc3c(OC)c(C(N)=O)ccc32)c(C(=O)O)c1 [Example 33]
107
